Each record here notes measured pIC50.
# Target Entity: protein kinase B (PKB), fusion protein PKB-PIF (Homo sapiens, UniProt P31751)
# Sequence (P31751 with tags, fused parts or gaps limits assumed): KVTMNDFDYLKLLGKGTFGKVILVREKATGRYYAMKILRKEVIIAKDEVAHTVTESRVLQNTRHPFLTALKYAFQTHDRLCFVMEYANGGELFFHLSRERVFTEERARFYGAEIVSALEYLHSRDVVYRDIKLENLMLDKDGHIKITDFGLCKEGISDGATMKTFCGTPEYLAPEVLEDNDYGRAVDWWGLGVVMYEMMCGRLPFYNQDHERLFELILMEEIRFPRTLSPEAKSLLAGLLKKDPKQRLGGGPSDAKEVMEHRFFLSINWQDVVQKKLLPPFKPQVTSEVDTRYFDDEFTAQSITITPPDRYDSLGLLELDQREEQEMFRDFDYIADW
# Protocol Description: Measurement of PKB kinase inhibitory activity (IC50)
# Reported Conditions: 0.6 nM enzyme, 30 μM ATP/γ33P-ATP, 25 μM AKTide-2T substrate, 20 minutes; read-out: IC50, concentration required to inhibit 50% of the PKB activity
pIC50: −log10 of the molar value. Counter-ions that a name gives are not always drawn.

- Compound: "COc1ccc(C2(c3ccc(-c4c[nH]nc4C)cc3)CCNCC2)cc1 [Example 86, dihydrochloride]"
  Target Entity: "protein kinase B (PKB), fusion protein PKB-PIF (Homo sapiens, UniProt P31751)"
  Endpoint Name: "pIC50"
  Experimental Result: "> 7.00"
- Compound: "Clc1ccc(C2(c3ccc(-c4cn[nH]c4C4CC4)cc3)CCNCC2)cc1"
  Target Entity: "protein kinase B (PKB), fusion protein PKB-PIF (Homo sapiens, UniProt P31751)"
  Endpoint Name: "pIC50"
  Experimental Result: "> 7.00"

What value of pIC50 has been reported for the following compound? NCCC(O)(c1ccc(-c2cn[nH]c2)cc1)c1ccc(Cl)c(Cl)c1 (centres unmarked) > 7.00

Would you mind doing `COc1cccc(OCC2(c3ccc(-c4c[nH]nc4C)cc3)CCNCC2)c1` as well? > 6.00

Would you mind doing `Cc1n[nH]cc1-c1ccc(C2(COc3cccc(-c4nc5ccccc5o4)c3)CCNCC2)cc1` as well? > 7.00

Would you mind doing NCC(O)(c1ccc(Cl)cc1)c1ccc(-c2cn[nH]c2)cn1 (centres unmarked) [Example 91, hydrochloride] as well? > 6.00

Would you mind doing COc1ccc(-c2cccc(C3(c4ccc(-c5cn[nH]c5)cc4)CCNCC3)c2)cc1 [Example 85, dihydrochloride] as well? > 6.00

Would you mind doing `NCC[C@H](c1ccc(-c2cn[nH]c2)cc1)c1ccc(Cl)c(Cl)c1` as well? > 7.00

Would you mind doing `Clc1cccc(C2(c3ccc(-c4cn[nH]c4)cc3)CCNCC2)c1` as well? > 7.00

Would you mind doing NCC[C@](O)(c1ccc(Cl)cc1)c1ccc(-c2cn[nH]c2)cc1 [Example 99B] as well? > 7.00
